protein stability index values by entry
B1: CDC25A (parent)
chain: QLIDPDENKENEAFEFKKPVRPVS

Variants of: B1
method.description: protein stability index of a GFP-peptide fusion (GPS, HEK-293T) (PSI 1-6); higher = more stable;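 further: lentivirally expressed fusions sorted by FACS into six bins by GFP to DsRed ratio, PSI derived from sequencing read proportions per bin multiplied by bin number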
test.settings: c terminus: a fixed tail appended
measurement.label: protein stability index

| mutant.designation | result |
| --- | --- |
| K17R | 3.78 |
| E10C | 3.84 |
| S24D | 5.24 |
| S24V | 3.76 |
| I3K | 3.86 |
| N11V | 4.63 |
| K18C | 4.1 |
| P19A | 4.44 |
| K17V | 3.98 |
| F14C | 4.55 |
| K9W | 3.82 |
| F16N | 4.08 |
| K18T | 4.33 |
| F16W | 4.33 |
| P5K | 3.95 |
| D6R | 3.58 |
| Q1A | 4.36 |
| A13D | 4.34 |
| P5H | 3.61 |
| N11C | 4.23 |
